Entry source: patent US20150368338A1

- experimental system: T1, IFN-αG (human, UniProt P01569 24-189)
- T1 construct: also called IFN-α5; alpha G
- experiment notes: ProteOn, one antigen concentration
pKd: −log10 of the molar value.

# binder, pKd
records = [
    ("IFWM3347 (antibody, V domains shown, VH IFWH624, VL IFWL1004; converted mAb; also called IFWB3082) VH: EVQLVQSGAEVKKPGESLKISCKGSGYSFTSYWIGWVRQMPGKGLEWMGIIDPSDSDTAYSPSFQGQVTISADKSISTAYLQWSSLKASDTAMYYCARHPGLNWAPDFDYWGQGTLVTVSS VL: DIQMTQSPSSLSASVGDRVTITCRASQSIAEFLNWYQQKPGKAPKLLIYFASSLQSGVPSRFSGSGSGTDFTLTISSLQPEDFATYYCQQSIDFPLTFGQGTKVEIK", 10.08),
    ("IFWM3303 (antibody, V domains shown, VH IFWH591, VL IFWL992; converted mAb; also called IFWB3038) VH: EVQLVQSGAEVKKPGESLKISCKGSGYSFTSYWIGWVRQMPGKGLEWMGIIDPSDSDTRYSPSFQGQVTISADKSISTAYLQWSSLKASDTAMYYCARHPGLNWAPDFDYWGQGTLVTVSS VL: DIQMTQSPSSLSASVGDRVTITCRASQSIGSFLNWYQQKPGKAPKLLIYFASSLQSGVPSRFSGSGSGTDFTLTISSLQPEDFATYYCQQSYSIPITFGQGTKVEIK", 10.09),
    ("IFWM3319 (antibody, V domains shown, VH IFWH591, VL IFWL1041; converted mAb; also called IFWB3054) VH: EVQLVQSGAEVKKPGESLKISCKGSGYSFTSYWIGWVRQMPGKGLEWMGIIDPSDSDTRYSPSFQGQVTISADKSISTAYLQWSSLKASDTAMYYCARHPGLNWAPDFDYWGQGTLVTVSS VL: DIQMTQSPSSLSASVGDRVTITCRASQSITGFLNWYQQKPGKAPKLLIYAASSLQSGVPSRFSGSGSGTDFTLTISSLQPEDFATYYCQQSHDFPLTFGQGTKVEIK", 10.31),
    ("IFWM3342 (antibody, V domains shown, VH IFWH624, VL IFWL992; converted mAb; also called IFWB3077) VH: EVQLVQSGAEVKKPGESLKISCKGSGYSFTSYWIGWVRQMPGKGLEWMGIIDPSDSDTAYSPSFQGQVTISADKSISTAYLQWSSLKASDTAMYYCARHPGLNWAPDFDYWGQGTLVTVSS VL: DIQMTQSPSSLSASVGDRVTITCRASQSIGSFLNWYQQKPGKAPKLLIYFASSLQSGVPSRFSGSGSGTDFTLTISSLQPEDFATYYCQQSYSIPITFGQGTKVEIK", 10.85),
    ("IFWM3308 (antibody, V domains shown, VH IFWH591, VL IFWL1004; converted mAb; also called IFWB3043) VH: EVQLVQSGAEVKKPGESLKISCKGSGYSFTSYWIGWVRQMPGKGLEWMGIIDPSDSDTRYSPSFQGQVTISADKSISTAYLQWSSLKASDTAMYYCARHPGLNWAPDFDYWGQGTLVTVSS VL: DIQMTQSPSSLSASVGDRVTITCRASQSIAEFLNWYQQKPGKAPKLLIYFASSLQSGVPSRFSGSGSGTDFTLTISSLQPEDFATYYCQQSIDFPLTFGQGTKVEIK", 10.35),
    ("IFWM3312 (antibody, V domains shown, VH IFWH591, VL IFWL1010; converted mAb; also called IFWB3047) VH: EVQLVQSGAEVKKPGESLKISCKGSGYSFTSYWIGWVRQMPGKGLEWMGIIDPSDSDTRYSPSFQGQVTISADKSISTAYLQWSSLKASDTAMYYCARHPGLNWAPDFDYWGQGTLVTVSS VL: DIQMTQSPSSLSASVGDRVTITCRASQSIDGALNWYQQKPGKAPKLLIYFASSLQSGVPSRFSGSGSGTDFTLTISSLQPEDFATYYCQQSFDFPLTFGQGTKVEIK", 10.89),
    ("IFWM3320 (antibody, V domains shown, VH IFWH591, VL IFWL1047; converted mAb; also called IFWB3055) VH: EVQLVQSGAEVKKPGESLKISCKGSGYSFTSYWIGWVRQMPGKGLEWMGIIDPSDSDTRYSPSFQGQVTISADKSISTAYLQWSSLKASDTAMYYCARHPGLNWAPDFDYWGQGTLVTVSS VL: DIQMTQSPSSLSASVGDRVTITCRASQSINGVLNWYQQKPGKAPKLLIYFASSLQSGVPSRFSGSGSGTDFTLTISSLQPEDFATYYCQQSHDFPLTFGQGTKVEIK", 10.48),
    ("IFWM3336 (antibody, V domains shown, VH IFWH591, VL IFWL1085; converted mAb; also called IFWB3071) VH: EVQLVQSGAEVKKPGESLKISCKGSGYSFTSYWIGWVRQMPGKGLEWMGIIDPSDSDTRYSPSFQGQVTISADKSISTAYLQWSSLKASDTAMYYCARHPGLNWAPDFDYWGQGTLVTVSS VL: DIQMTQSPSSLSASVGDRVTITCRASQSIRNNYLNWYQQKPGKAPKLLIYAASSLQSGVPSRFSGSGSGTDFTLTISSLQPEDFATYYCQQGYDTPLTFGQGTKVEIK", 10.29),
    ("IFWM3351 (antibody, V domains shown, VH IFWH624, VL IFWL1010; converted mAb; also called IFWB3086) VH: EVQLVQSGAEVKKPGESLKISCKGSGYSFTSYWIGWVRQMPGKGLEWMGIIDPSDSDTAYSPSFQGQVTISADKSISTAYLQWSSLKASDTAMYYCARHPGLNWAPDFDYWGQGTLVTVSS VL: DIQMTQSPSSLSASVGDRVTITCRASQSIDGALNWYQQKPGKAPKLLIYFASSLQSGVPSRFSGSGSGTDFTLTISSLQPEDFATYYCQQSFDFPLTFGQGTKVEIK", 10.82),
    ("IFWM3364 (antibody, V domains shown, VH IFWH624, VL IFWL1060; converted mAb; also called IFWB3099) VH: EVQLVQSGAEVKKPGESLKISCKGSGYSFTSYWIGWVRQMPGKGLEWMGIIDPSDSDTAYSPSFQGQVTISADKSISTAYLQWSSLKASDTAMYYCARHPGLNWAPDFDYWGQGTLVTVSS VL: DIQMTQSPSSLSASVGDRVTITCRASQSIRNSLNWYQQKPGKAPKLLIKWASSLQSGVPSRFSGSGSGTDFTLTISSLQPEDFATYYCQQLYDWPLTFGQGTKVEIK", 10.10),
]
